- RUN_DESCRIPTION: Human pregnane X receptor (PXR) small molecule agonists, qHTS cell viability counter screen (AID 1346977); note: nearly all actives have a fitted effect of over 50% in size
- CONDITION_SET: PXR-Luc HepG2 viability, CellTiter-Fluor, 24 h; series mostly up to 92.4 µM
Results filed as inconclusive are left out. The source made the active and inactive calls. Calls come from the whole dose curve; as a rule, active = well fitted cell-killing curve with a large enough effect in the repeat runs; inconclusive = weak or mixed curves, or effect the other way; inactive = flat fitted curve, though single readings scatter.
Classes used: yes (active), no (inactive)

* Nc1cc([N+](=O)[O-])ccc1C(=O)O | no
* COc1ccc(C(=O)c2ccccc2O)c(O)c1 | no
* Cc1cccc(Nc2ccccc2C(=O)O)c1C | no
* O=C(O)COCCN1CCN(C(c2ccccc2)c2ccc(Cl)cc2)CC1 (stereo unspecified) | no
* CC1(C)NC(=O)N(c2ccc([N+](=O)[O-])c(C(F)(F)F)c2)C1=O | no
* CC(C)(C)c1cccc(C(C)(C)C)c1O | no
* CN(C)C | no
* CN1CCOCC1 | no
* c1ccc2c(c1)ccc1cc3c(ccc4ccccc43)cc12 | no
* O=C1OC2(c3ccccc31)c1cc(I)c(O)c(I)c1Oc1c2cc(I)c(O)c1I | yes
* CN(C)/N=N/c1nc[nH]c1C(N)=O | no
* Oc1c(Cl)ccc(Cl)c1Cl | no
* CC1(C)C(C=C(Cl)Cl)C1C(=O)OCc1cccc(Oc2ccccc2)c1 (stereo unspecified) | no
* COCCOCCOCCO | no
* C[C@]12C=CC(=O)C=C1CC[C@H]1[C@@H]3C[C@@H](O)[C@](O)(C(=O)CO)[C@@]3(C)C[C@H](O)[C@@]12F | no
* NCCOCCO | no
* CCCCCCCCCCCCCO | no
* C=CCCCCCCCCCC | no
* CCc1cccc2c3c([nH]c12)C(CC)(CC(=O)O)OCC3 (stereo unspecified) | no
* COc1cc([C@H]2Oc3cc([C@H]4Oc5cc(O)cc(O)c5C(=O)[C@@H]4O)ccc3O[C@@H]2CO)ccc1O | no
* CCCCCCOCCOCCO | no
* C=CC(=O)OCCCC | no
* Clc1ccc(Sc2cc(Cl)c(Cl)cc2Cl)cc1 | no
* CC(=O)[C@@]1(O)CC[C@H]2[C@@H]3C[C@H](C)C4=CC(=O)C=C[C@]4(C)[C@@]3(F)[C@@H](O)C[C@@]21C | no
* CCCOCCO | no
* OCCNCCO | no
* CCCCCCCC/C=C\CCCCCCCC(=O)O | no
* C=C1C[C@H]2[C@@H]3C=C(C)C4=CC(=O)CC[C@]4(C)[C@H]3CC[C@]2(C)[C@@]1(OC(C)=O)C(C)=O | no
* Cc1ccc(S(=O)(=O)O)cc1C | no
* C/C=C/C(=O)N(CC)c1ccccc1C | no
* CC/C(=C(/CC)c1ccc(O)cc1)c1ccc(O)cc1 | no
* CC(C)(Oc1ccc(Cl)cc1)C(=O)O | no
* CC(=O)Oc1c(C)c(C)c2c(c1C)CC[C@@](C)(CCC[C@H](C)CCC[C@H](C)CCCC(C)C)O2 | no
* C=C[Si](OCCOC)(OCCOC)OCCOC | no
* CCOC(=O)C(C)Oc1ccc(Oc2cnc3cc(Cl)ccc3n2)cc1 (stereo unspecified) | no
* CC1(C)O[C@@H]2C[C@H]3[C@@H]4C[C@H](F)C5=CC(=O)C=C[C@]5(C)[C@@]4(F)[C@@H](O)C[C@]3(C)[C@]2(C(=O)CO)O1 | no
* COC(=O)c1ccc(C)cc1 | no
* c1ccc2c(c1)ccc1ncccc12 | no
* CC(=O)[C@H]1CC[C@H]2[C@@H]3CC=C4C[C@@H](O)CC[C@]4(C)[C@H]3CC[C@]12C | no
* O=C(O)CCCC(=O)O | no
* CCCCCCC(C)O (stereo unspecified) | no
* Cc1ccc(S(=O)(=O)NCl)cc1 | no
* Nc1ccc(O)c(N)c1 | yes
* CCCCCCCCCCCCO | no
* C[C@]12CC[C@@H]3c4ccc(O)cc4CC[C@H]3[C@@H]1CC[C@H]2O | no
* C1CN(SSN2CCOCC2)CCO1 | no
